- target-desc: gamma-secretase (Homo sapiens, UniProt P49768, M146L)
- method-notes: β-amyloid cellular test: inhibition of production of β-amyloid (β-A4) peptide, ELISA of cell supernatants
- condition-context: line CHO-K1 co-expressing the CT100 of APP and PS1 M146L clone 30-12; incubated 24-25 hours; secreted amyloid peptide by ELISA; read-out: EC50 (50% effective concentration), inhibition of production of the β-amyloid (β-A4) peptide
measured-quantity: EC50
For clarity, give the value followed by its unit.

Field: EC50 (gamma-secretase (Homo sapiens, UniProt P49768, M146L)). Entry: CCC[C@H](NC(=O)Cc1cc(F)cc(F)c1)C(=O)Nc1nc(C(=O)OC)c(-c2ccccc2Oc2ccc(F)cc2)s1 [Compound 13]
6 nM
